System: CP215
Experiment: qHTS profiling for inhibitors of Plasmodium falciparum proliferation (AID 504749); also: nearly all actives have a fitted effect of over 60% in size; also: potency is read from the fitted curve at half-maximal effect
Details: P. falciparum in erythrocytes, SYBR Green DNA, 72 h; series mostly up to 28.7 µM
Results filed as inconclusive are left out. Activity calls are given as the source filed them. Calls follow the shape of the dose curve; as a rule, active = well fitted inhibition curve with a large enough effect; inconclusive = small, poorly fitted or top-dose-only effect; inactive = flat fitted curve, though single readings scatter.

{"molecule": "C=C1/C(=C\\C=C2/CCC[C@]3(C)[C@@H]([C@H](C)/C=C/[C@@H](O)C4CC4)CC[C@@H]23)C[C@@H](O)C[C@@H]1O", "tested-system": "CP215", "Potency": "inactive"}
{"molecule": "OC[C@@H]1O[C@](CO)(O[C@H]2O[C@H](CO)[C@@H](O)[C@H](O)[C@H]2O)[C@H](O)[C@H]1O", "tested-system": "CP215", "Potency": "inactive"}
{"molecule": "OCC1OC(O)C(O)C(O)C1O (stereo not given)", "tested-system": "CP215", "Potency": "inactive"}
{"molecule": "C=CC1CN2CCC1CC2[C@@H](O)c1ccnc2ccc(OC)cc12 (stereo not given in full)", "tested-system": "CP215", "Potency": "478 nM (active)"}
{"molecule": "CCC(C)C(N)C(=O)O (stereo not given)", "tested-system": "CP215", "Potency": "inactive"}
{"molecule": "COc1cc(/C=C2\\CCC/C(=C\\c3ccc(O)c(OC)c3)C2=O)ccc1O", "tested-system": "CP215", "Potency": "15100 nM (active)"}
{"molecule": "OCC1O[C@@H](O[C@@H]2C(CO)OC(O)C(O)C2O)C(O)C(O)C1O (stereo not given in full)", "tested-system": "CP215", "Potency": "inactive"}
{"molecule": "NC(CSSCC(N)C(=O)O)C(=O)O (stereo not given)", "tested-system": "CP215", "Potency": "inactive"}
{"molecule": "CCCCC(=O)O[C@]1(C(=O)CO)CCC2C3CCC4=CC(=O)CCC4(C)C3C(O)CC21C (stereo not given in full)", "tested-system": "CP215", "Potency": "inactive"}
{"molecule": "CC1(C)C2CC[C@]1(C)[C@@H](O)C2", "tested-system": "CP215", "Potency": "inactive"}
{"molecule": "Oc1cc2cc(CCN3CCN(c4nsc5ccccc45)CC3)c(Cl)cc2[nH]1", "tested-system": "CP215", "Potency": "inactive"}
{"molecule": "CC1(C)SC2C(NC(=O)C(C(=O)O)c3ccccc3)C(=O)N2C1C(=O)O (stereo not given)", "tested-system": "CP215", "Potency": "inactive"}
{"molecule": "CC(C)CCCC(C)C1CC(=O)C2=C3CCC4CC(O)CCC4(C)C3CCC21C (stereo not given)", "tested-system": "CP215", "Potency": "inactive"}
{"molecule": "CC(=O)CC(c1ccccc1)C1C(=O)Oc2ccccc2C1=O (stereo not given)", "tested-system": "CP215", "Potency": "inactive"}
{"molecule": "CC[C@@H]1/C=C(\\C)C[C@H](C)C[C@H](OC)[C@H]2O[C@@](O)(C(=O)C(=O)N3CCCC[C@H]3C(=O)O[C@H](/C(C)=C/[C@@H]3CC[C@H](Cl)[C@H](OC)C3)[C@H](C)[C@@H](O)CC1=O)[C@H](C)C[C@@H]2OC", "tested-system": "CP215", "Potency": "inactive"}
{"molecule": "C=C[C@@]1(C)C[C@H](OC(=O)CSC(C)(C)CNC(=O)[C@@H](N)C(C)C)[C@@]2(C)C(C)CC[C@@]3(CCC(=O)[C@@H]32)[C@H](C)[C@H]1O (stereo not given in full)", "tested-system": "CP215", "Potency": "1690 nM (active)"}
{"molecule": "CC(=O)N1CC(O)CC1C(=O)O (stereo not given)", "tested-system": "CP215", "Potency": "inactive"}
{"molecule": "C=C1[C@@H]2CC[C@H](C2)C1(C)C", "tested-system": "CP215", "Potency": "inactive"}
{"molecule": "CCCCCOC(=O)Nc1nc(=O)n(C2O[C@H](C)[C@@H](O)[C@@H]2O)cc1F (stereo not given in full)", "tested-system": "CP215", "Potency": "inactive"}
{"molecule": "CC[C@@H](C)C(N)C(=O)O (stereo not given in full)", "tested-system": "CP215", "Potency": "inactive"}

----------
Tested on: CP185
Experiment: qHTS profiling for inhibitors of Plasmodium falciparum proliferation (AID 504749); also: nearly all actives have a fitted effect of over 60% in size
Conditions: P. falciparum in erythrocytes, SYBR Green DNA, 72 h; series mostly up to 28.7 µM
Records with an inconclusive call do not appear. Activity calls are given as the source filed them. The call rests on the fitted dose curve; in most records, active means well fitted inhibition curve with a large enough effect; inconclusive means small, poorly fitted or top-dose-only effect; inactive means flat fitted curve, though single readings scatter.
Outcomes: 1 for active, -1 for inactive

{"compound": "CCCCCCCCCCCCCCCC(=O)OCC(COP(=O)(O)OCC[N+](C)(C)C)OC(=O)CCCCCCCCCCCCCCC (centres undefined)", "assigned-category": -1}
{"compound": "CCN1CCN(C(=O)NC(C(=O)NC2C(=O)N3C(C(=O)O)=C(CSc4nnnn4C)CSC23)c2ccc(O)cc2)C(=O)C1=O (centres undefined)", "assigned-category": -1}
{"compound": "O=C(OC[C@@H]1O[C@@](O)(COC(=O)c2cccnc2)[C@H](OC(=O)c2cccnc2)[C@H]1OC(=O)c1cccnc1)c1cccnc1", "assigned-category": -1}
{"compound": "C=C[C@@]1(C)C[C@H](OC(=O)CSC(C)(C)CNC(=O)[C@@H](N)C(C)C)[C@@]2(C)C(C)CC[C@@]3(CCC(=O)[C@@H]32)[C@H](C)[C@H]1O (some centres undefined)", "assigned-category": 1}
{"compound": "CC(O)C(N)C(=O)O (centres undefined)", "assigned-category": -1}
{"compound": "CCCCCCCCCCCC(=O)OCC(O)C1OCC(O)C1O (centres undefined)", "assigned-category": -1}
{"compound": "OCC1O[C@H](Oc2ccc(O)cc2)C(O)C(O)C1O (some centres undefined)", "assigned-category": -1}
{"compound": "CCC(C)C(N)C(=O)O (centres undefined)", "assigned-category": -1}
{"compound": "CC1=C(c2ccc(NN=C(C#N)C#N)cc2)NNC(=O)C1", "assigned-category": -1}
{"compound": "CN1[C@@H]2CC[C@@H]1CC(OC(=O)[C@H](CO)c1ccccc1)C2 (some centres undefined)", "assigned-category": -1}
{"compound": "NCCCCC(N)C(=O)O (centres undefined)", "assigned-category": -1}
{"compound": "C=C1CC2C3C=C(C)C4=CC(=O)CCC4(C)C3CCC2(C)[C@@]1(OC(C)=O)C(C)=O (some centres undefined)", "assigned-category": -1}
{"compound": "C=NC(C(=O)NC1C(=O)N2C1SC(C)(C)C2C(=O)O)c1ccccc1 (centres undefined)", "assigned-category": -1}
{"compound": "O=C(O)C[CH2][Ge](=[O])[O][Ge](=[O])[CH2]CC(=O)O", "assigned-category": -1}
{"compound": "NC[C@@H]1O[C@H](OC2[C@@H](CO)O[C@@H](OC3[C@H](O)[C@H](N)C[C@H](N)[C@H]3OC3O[C@H](CO)[C@@H](O)[C@H](O)[C@@H]3N)[C@H]2O)C(N)[C@H](O)[C@@H]1O (some centres undefined)", "assigned-category": -1}
{"compound": "CC1(Cn2ccnn2)[C@H](C(=O)O)N2C(=O)C[C@H]2S1(=O)=O (some centres undefined)", "assigned-category": -1}
{"compound": "Cc1cnc(C(=O)O)cn1", "assigned-category": -1}
{"compound": "CCC(=O)O[C@]1(C(=O)CCl)[C@@H](C)CC2C3C[C@H](F)C4=CC(=O)C=CC4(C)[C@@]3(F)C(O)CC21C (some centres undefined)", "assigned-category": 1}
{"compound": "CC(=O)NC1[C@H]([C@H](O)[C@H](O)CO)OC(C(=O)O)=C[C@H]1N=C(N)N (some centres undefined)", "assigned-category": -1}

----------
Test system: PC15
Assay: qHTS profiling for inhibitors of Plasmodium falciparum proliferation (AID 504749); also: nearly all actives have a fitted effect of over 60% in size
Conditions: P. falciparum in erythrocytes, SYBR Green DNA, 72 h; series mostly up to 28.7 µM
Inconclusive results are not listed. Activity calls are given as the source filed them. Calls follow the shape of the dose curve; as a rule, active = well fitted inhibition curve with a large enough effect; inconclusive = small, poorly fitted or top-dose-only effect; inactive = flat fitted curve, though single readings scatter.
Labels: class 1 for active, class 0 for inactive

{"compound": "CC[C@H]1OC(=O)[C@H](C)C(=O)[C@H](C)[C@@H](OC2O[C@H](C)C[C@H](N(C)C)[C@@H]2O)[C@@](C)(OC)C[C@@H](C)C(=O)[C@@H](C)C2N(CCCCn3cnc(-c4cccnc4)c3)C(=O)O[C@@]21C (some centres not stated)", "assigned-category": "class 0"}
{"compound": "C/C1=C2/[N-]C(C(CC(N)=O)[C@@]2(C)CCC(=O)NCC(C)OP(=O)([O-])O[C@H]2[C@@H](O)[C@@H](n3cnc4cc(C)c(C)cc43)O[C@@H]2CO)[C@]2(C)N=C(/C(C)=C3N=C(/C=C4N=C1C(CCC(N)=O)C\\4(C)C)[C@@H](CCC(N)=O)[C@]\\3(C)CC(N)=O)[C@@H](CCC(N)=O)[C@]2(C)CC(N)=O.CC(=O)O.[Co] (some centres not stated)", "assigned-category": "class 0"}
{"compound": "CC1CCC(C(C)C)C(O)C1 (configuration not stated)", "assigned-category": "class 0"}
{"compound": "CN1[C@H]2CC(OC(=O)[C@H](CO)c3ccccc3)C[C@H]1[C@H]1O[C@H]12 (some centres not stated)", "assigned-category": "class 0"}
{"compound": "O=C(NC(CO)C(O)c1ccc([N+](=O)[O-])cc1)C(Cl)Cl (configuration not stated)", "assigned-category": "class 0"}
{"compound": "CC1=C(c2ccc(NN=C(C#N)C#N)cc2)NNC(=O)C1", "assigned-category": "class 0"}
{"compound": "O=C1C(I)=CC(=C(c2cc(I)c(O)c(I)c2)c2ccccc2C(=O)O)C=C1I", "assigned-category": "class 0"}
{"compound": "C=NC(C(=O)NC1C(=O)N2C1SC(C)(C)C2C(=O)O)c1ccccc1 (configuration not stated)", "assigned-category": "class 0"}
{"compound": "CC12C=CC(=O)C=C1[C@@H](F)CC1C2C(O)CC2(C)C1CC[C@]2(O)C(=O)CO (some centres not stated)", "assigned-category": "class 0"}
{"compound": "O=C(O)Cc1sc(-c2ccc(Cl)cc2)nc1-c1ccccc1", "assigned-category": "class 0"}
{"compound": "CC1(C)SC2C(NC(=O)C(C(=O)O)c3ccccc3)C(=O)N2C1C(=O)O (configuration not stated)", "assigned-category": "class 0"}
{"compound": "CC1CCC(O)C/C1=C\\C=C1/CCCC2(C)C1CCC2C(C)/C=C/C(C)C(C)C (configuration not stated)", "assigned-category": "class 0"}
{"compound": "CC(=O)OCC(=O)[C@@]1(O)CCC2C3C[C@H](C)C4=CC(=O)C=CC4(C)C3C(O)CC21C (some centres not stated)", "assigned-category": "class 0"}
{"compound": "C[C@]12CC[C@@H]3c4ccc(O)cc4C[C@@H](CCCCCCCCCS(=O)CCCC(F)(F)C(F)(F)F)C3[C@@H]1CC[C@@H]2O (some centres not stated)", "assigned-category": "class 1"}
{"compound": "O=C(O)CC(O)CC(O)/C=C/c1c(C2CC2)nc2ccccc2c1-c1ccc(F)cc1 (configuration not stated)", "assigned-category": "class 0"}
{"compound": "CCCC[C@H](O)c1ccccc1", "assigned-category": "class 0"}
{"compound": "C[C@H](O)[C@@H]1C(=O)N2C(C(=O)O)=C(SCCN=CN)C[C@@H]12", "assigned-category": "class 0"}

Values compiled from PubChem BioAssay (NCATS).
